Taken from ChEMBL document CHEMBL4270630.

Assign MCC at 120 h to each entry below.
Assay: Cytotoxicity against HEL299 cells assessed as changes in cell morphology after 5 days by microscopic method
Format: cell-based, HEL 299
Details: human

compound	readout-label	reported
CCCCOCc1cn(CCOCCOCCOCCOCc2cn([C@H]3C(=O)N[C@@H]4Cc5ccc(c(Cl)c5)Oc5cc6cc(c5O)Oc5ccc(cc5Cl)[C@@H](O[C@@H]5O[C@H](CO)[C@@H](O)[C@H](O)[C@H]5NC(C)=O)[C@H]5NC(=O)[C@H](NC(O)[C@@H]6NC(=O)[C@@H](NC4=O)c4cc(O)cc(c4)Oc4cc3ccc4O)c3ccc(O)c(c3)-c3c(O)cc(O)cc3[C@H](C(=O)O)NC5=O)nn2)nn1 (stereo partly drawn)	MCC at 120 h	≥ 100 µM
CCCCCCSC1=C(SCCCCCC)C(=O)N(CCOCCOCCOCCOCc2cn(C3C(=O)N[C@@H]4Cc5ccc(c(Cl)c5)Oc5cc6cc(c5O)Oc5ccc(cc5Cl)[C@@H](O[C@@H]5O[C@H](CO)[C@@H](O)[C@H](O)[C@H]5NC(C)=O)[C@H]5NC(=O)[C@H](NC(O)[C@@H]6NC(=O)[C@@H](NC4=O)c4cc(O)cc(c4)Oc4cc3ccc4O)c3ccc(O)c(c3)-c3c(O)cc(O)cc3[C@H](C(=O)O)NC5=O)nn2)C1=O (stereo partly drawn)	MCC at 120 h	≥ 20 µM

Q. Please look up its MCC at 120 h: CC(=O)N[C@H]1[C@H](O[C@@H]2c3ccc(c(Cl)c3)Oc3cc4cc(c3O)Oc3ccc(cc3Cl)C[C@H]3NC(=O)[C@H](NS(=O)(=O)c5ccc(-c6ccccc6)cc5)c5ccc(O)c(c5)Oc5cc(O)cc(c5)[C@H](NC3=O)C(=O)N[C@H]4C(O)N[C@H]3C(=O)N[C@H]2C(=O)N[C@@H](C(=O)O)c2cc(O)cc(O)c2-c2cc3ccc2O)O[C@H](CO)[C@@H](O)[C@@H]1O (stereo partly drawn)
A. 4 µM

----------
Test: Cytotoxicity against HEL299 cells assessed as changes in cell morphology after 5 days by microscopic method
Assay type: cell-based, HEL 299
Conditions: human
readout-label: MCC at 120 h

Q. Please look up its MCC at 120 h: CCCCCCOCc1cn(CCOCCOCCOCCOCc2cn([C@H]3C(=O)N[C@@H]4Cc5ccc(c(Cl)c5)Oc5cc6cc(c5O)Oc5ccc(cc5Cl)[C@@H](O[C@@H]5O[C@H](CO)[C@@H](O)[C@H](O)[C@H]5NC(C)=O)[C@H]5NC(=O)[C@H](NC(O)[C@@H]6NC(=O)[C@@H](NC4=O)c4cc(O)cc(c4)Oc4cc3ccc4O)c3ccc(O)c(c3)-c3c(O)cc(O)cc3[C@H](C(=O)O)NC5=O)nn2)nn1 (stereo partly specified)
A. ≥ 100 µM

----------
Test system: MDCK
Assay: Cytotoxicity against MDCK cells assessed as reduction in cell viability after 3 days by MTS assay
Assay type: cell-based, Canis lupus familiaris
Settings: dog, mdck, 72 h
readout-label: CC50 (µM)
Numbers only, in µM.

Example molecules with recorded CC50:
molecule	readout-label	reported
CCCCCCCCSC1=C(SCCCCCCCC)C(=O)N(CCOCCOCCOCCOCc2cn(C3C(=O)N[C@@H]4Cc5ccc(c(Cl)c5)Oc5cc6cc(c5O)Oc5ccc(cc5Cl)[C@@H](O[C@@H]5O[C@H](CO)[C@@H](O)[C@H](O)[C@H]5NC(C)=O)[C@H]5NC(=O)[C@H](NC(O)[C@@H]6NC(=O)[C@@H](NC4=O)c4cc(O)cc(c4)Oc4cc3ccc4O)c3ccc(O)c(c3)-c3c(O)cc(O)cc3[C@H](C(=O)O)NC5=O)nn2)C1=O (stereo partly specified)	CC50	19
CCCCCCCCCCCCSC1=C(SCCCCCCCCCCCC)C(=O)N(Cc2cn(C3C(=O)N[C@@H]4Cc5ccc(c(Cl)c5)Oc5cc6cc(c5O)Oc5ccc(cc5Cl)[C@@H](O[C@@H]5O[C@H](CO)[C@@H](O)[C@H](O)[C@H]5NC(C)=O)[C@H]5NC(=O)[C@H](NC(O)[C@@H]6NC(=O)[C@@H](NC4=O)c4cc(O)cc(c4)Oc4cc3ccc4O)c3ccc(O)c(c3)-c3c(O)cc(O)cc3[C@H](C(=O)O)NC5=O)nn2)C1=O (stereo partly specified)	CC50	75
CCCCCCCCSC1=C(SCCCCCCCC)C(=O)N([C@H]2C(=O)N[C@@H]3Cc4ccc(c(Cl)c4)Oc4cc5cc(c4O)Oc4ccc(cc4Cl)[C@@H](O[C@@H]4O[C@H](CO)[C@@H](O)[C@H](O)[C@H]4NC(C)=O)[C@H]4NC(=O)[C@H](NC(O)[C@@H]5NC(=O)[C@@H](NC3=O)c3cc(O)cc(c3)Oc3cc2ccc3O)c2ccc(O)c(c2)-c2c(O)cc(O)cc2[C@H](C(=O)O)NC4=O)C1=O (stereo partly specified)	CC50	11

Consider now this further molecule.
Q. Reported CC50 for MDCK, given CCCSC1=C(SCCC)C(=O)N(Cc2cn(C3C(=O)N[C@@H]4Cc5ccc(c(Cl)c5)Oc5cc6cc(c5O)Oc5ccc(cc5Cl)[C@@H](O[C@@H]5O[C@H](CO)[C@@H](O)[C@H](O)[C@H]5NC(C)=O)[C@H]5NC(=O)[C@H](NC(O)[C@@H]6NC(=O)[C@@H](NC4=O)c4cc(O)cc(c4)Oc4cc3ccc4O)c3ccc(O)c(c3)-c3c(O)cc(O)cc3[C@H](C(=O)O)NC5=O)nn2)C1=O (stereo partly specified) ?
A. 22

----------
Assign EC50 to each entry below.
Test system: H3N2 subtype
Test: Antiviral activity against Influenza A virus A/HK/7/87(H3N2) infected in MDCK cells assessed as reduction in virus-induced cytopathic effect after 3 days by microscopic method
Format: functional, organism-based
Details: A/Hong Kong/7/1987(H3N2), 72 h
One number for each entry, in µM.

compound	assayed-target	reported
NC(=O)c1ncn([C@@H]2O[C@H](CO)[C@@H](O)[C@H]2O)n1	H3N2 subtype	13
CCCCCCSC1=C(SCCCCCC)C(=O)N(Cc2cn(C3C(=O)N[C@@H]4Cc5ccc(c(Cl)c5)Oc5cc6cc(c5O)Oc5ccc(cc5Cl)[C@@H](O[C@@H]5O[C@H](CO)[C@@H](O)[C@H](O)[C@H]5NC(C)=O)[C@H]5NC(=O)[C@H](NC(O)[C@@H]6NC(=O)[C@@H](NC4=O)c4cc(O)cc(c4)Oc4cc3ccc4O)c3ccc(O)c(c3)-c3c(O)cc(O)cc3[C@H](C(=O)O)NC5=O)nn2)C1=O (stereo not given in full)	H3N2 subtype	1.9
CC(=O)N[C@H]1[C@H](O[C@@H]2c3ccc(c(Cl)c3)Oc3cc4cc(c3O)Oc3ccc(cc3Cl)C[C@H]3NC(=O)[C@H](NS(=O)(=O)c5ccc(-c6ccccc6)cc5)c5ccc(O)c(c5)Oc5cc(O)cc(c5)[C@H](NC3=O)C(=O)N[C@H]4C(O)N[C@H]3C(=O)N[C@H]2C(=O)N[C@@H](C(=O)O)c2cc(O)cc(O)c2-c2cc3ccc2O)O[C@H](CO)[C@@H](O)[C@@H]1O (stereo not given in full)	H3N2 subtype	1.5

Consider now this further compound.
Q. Please look up its EC50: CC(=O)N[C@H]1[C@H](O[C@@H]2c3ccc(c(Cl)c3)Oc3cc4cc(c3O)Oc3ccc(cc3Cl)C[C@H]3NC(=O)[C@H](NS(=O)(=O)c5ccccc5)c5ccc(O)c(c5)Oc5cc(O)cc(c5)[C@H](NC3=O)C(=O)N[C@H]4C(O)N[C@H]3C(=O)N[C@H]2C(=O)N[C@@H](C(=O)O)c2cc(O)cc(O)c2-c2cc3ccc2O)O[C@H](CO)[C@@H](O)[C@@H]1O (stereo not given in full)
A. 25

----------
Tested on: H3N2 subtype
Assay: Antiviral activity against Influenza A virus A/HK/7/87(H3N2) infected in MDCK cells assessed as reduction in virus-induced cytopathic effect after 3 days by microscopic method
Assay type: functional, organism-based
Details: A/Hong Kong/7/1987(H3N2), 72 h
readout-label: pEC50
Give bare numbers, as −log10 of the molar value.

Q. Reported pEC50 for H3N2 subtype, given CCCCCCSC1=C(SCCCCCC)C(=O)N(CCOCCOCCOCCOCc2cn(C3C(=O)N[C@@H]4Cc5ccc(c(Cl)c5)Oc5cc6cc(c5O)Oc5ccc(cc5Cl)[C@@H](O[C@@H]5O[C@H](CO)[C@@H](O)[C@H](O)[C@H]5NC(C)=O)[C@H]5NC(=O)[C@H](NC(O)[C@@H]6NC(=O)[C@@H](NC4=O)c4cc(O)cc(c4)Oc4cc3ccc4O)c3ccc(O)c(c3)-c3c(O)cc(O)cc3[C@H](C(=O)O)NC5=O)nn2)C1=O (some centres not stated) ?
A. 5.70

----------
Assign EC50 to each entry below.
System: H3N2 subtype
Assay: Antiviral activity against Influenza A virus A/HK/7/87(H3N2) infected in MDCK cells assessed as reduction in virus-induced cytopathic effect after 3 days by microscopic method
Format: functional, organism-based
Conditions: A/Hong Kong/7/1987(H3N2), 72 h
One number for each entry, in µM.

compound	reported
CCCSC1=C(SCCC)C(=O)N(CCOCCOCCOCCOCc2cn(C3C(=O)N[C@@H]4Cc5ccc(c(Cl)c5)Oc5cc6cc(c5O)Oc5ccc(cc5Cl)[C@@H](O[C@@H]5O[C@H](CO)[C@@H](O)[C@H](O)[C@H]5NC(C)=O)[C@H]5NC(=O)[C@H](NC(O)[C@@H]6NC(=O)[C@@H](NC4=O)c4cc(O)cc(c4)Oc4cc3ccc4O)c3ccc(O)c(c3)-c3c(O)cc(O)cc3[C@H](C(=O)O)NC5=O)nn2)C1=O (stereo partly drawn)	6.2
CCCCCCS(=O)(=O)N[C@H]1C(=O)N[C@@H]2Cc3ccc(c(Cl)c3)Oc3cc4cc(c3O)Oc3ccc(cc3Cl)[C@@H](O[C@@H]3O[C@H](CO)[C@@H](O)[C@H](O)[C@H]3NC(C)=O)[C@H]3NC(=O)[C@H](NC(O)[C@@H]4NC(=O)[C@@H](NC2=O)c2cc(O)cc(c2)Oc2cc1ccc2O)c1ccc(O)c(c1)-c1c(O)cc(O)cc1[C@H](C(=O)O)NC3=O (stereo partly drawn)	8.3

Consider now this further compound.
Q. Please look up its EC50: CC(=O)N[C@H]1[C@H](O[C@@H]2c3ccc(c(Cl)c3)Oc3cc4cc(c3O)Oc3ccc(cc3Cl)C[C@H]3NC(=O)[C@H](NS(=O)(=O)c5ccc(C)cc5)c5ccc(O)c(c5)Oc5cc(O)cc(c5)[C@H](NC3=O)C(=O)N[C@H]4C(O)N[C@H]3C(=O)N[C@H]2C(=O)N[C@@H](C(=O)O)c2cc(O)cc(O)c2-c2cc3ccc2O)O[C@H](CO)[C@@H](O)[C@@H]1O (stereo partly drawn)
A. 41
